Reference source for all entries: patent US20240376185A1

Recorded % inhibition of binding by entry
# TARGET UNDER TEST: tetanus neurotoxin (TeNT), authentic tetanus holotoxin (Clostridium tetani, UniProt P04958 2-1315)
# Sequence (P04958 2-457 limits assumed, chain 1 of 2): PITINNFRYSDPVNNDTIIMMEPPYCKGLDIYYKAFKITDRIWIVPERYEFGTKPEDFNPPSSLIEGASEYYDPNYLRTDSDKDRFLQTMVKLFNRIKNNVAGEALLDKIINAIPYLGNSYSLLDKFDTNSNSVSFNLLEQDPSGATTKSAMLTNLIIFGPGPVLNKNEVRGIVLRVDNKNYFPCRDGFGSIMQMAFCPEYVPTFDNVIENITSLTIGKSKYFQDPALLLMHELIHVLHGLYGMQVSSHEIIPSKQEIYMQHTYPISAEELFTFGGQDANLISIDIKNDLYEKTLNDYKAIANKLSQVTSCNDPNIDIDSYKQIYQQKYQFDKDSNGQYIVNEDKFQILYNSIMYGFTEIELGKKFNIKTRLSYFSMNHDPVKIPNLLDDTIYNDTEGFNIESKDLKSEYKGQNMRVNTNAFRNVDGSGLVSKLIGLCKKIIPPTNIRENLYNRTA
# Sequence (P04958 458-1315 limits assumed, chain 2 of 2): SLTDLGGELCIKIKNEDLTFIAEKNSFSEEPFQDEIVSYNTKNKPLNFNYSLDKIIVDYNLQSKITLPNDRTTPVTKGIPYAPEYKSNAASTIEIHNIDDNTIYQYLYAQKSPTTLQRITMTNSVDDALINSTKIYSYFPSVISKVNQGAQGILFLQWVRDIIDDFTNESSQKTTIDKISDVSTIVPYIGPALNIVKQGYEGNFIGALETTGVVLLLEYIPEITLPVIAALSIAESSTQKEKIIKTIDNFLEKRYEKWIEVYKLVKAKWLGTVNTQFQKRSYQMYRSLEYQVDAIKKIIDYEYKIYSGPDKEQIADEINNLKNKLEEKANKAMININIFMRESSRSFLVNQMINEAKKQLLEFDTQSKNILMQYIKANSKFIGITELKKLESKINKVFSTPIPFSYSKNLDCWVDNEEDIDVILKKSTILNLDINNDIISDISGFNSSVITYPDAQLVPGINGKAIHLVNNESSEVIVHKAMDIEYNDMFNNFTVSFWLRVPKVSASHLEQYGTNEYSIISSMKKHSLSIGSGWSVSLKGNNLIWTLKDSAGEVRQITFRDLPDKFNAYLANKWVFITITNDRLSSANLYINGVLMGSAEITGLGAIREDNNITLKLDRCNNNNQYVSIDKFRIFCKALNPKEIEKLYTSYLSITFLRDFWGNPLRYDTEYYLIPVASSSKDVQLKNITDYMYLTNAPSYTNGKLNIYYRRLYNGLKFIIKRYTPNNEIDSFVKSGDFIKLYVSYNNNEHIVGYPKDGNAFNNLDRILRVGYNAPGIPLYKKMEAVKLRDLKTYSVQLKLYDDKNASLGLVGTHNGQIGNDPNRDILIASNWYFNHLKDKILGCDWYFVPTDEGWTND
# ASSAY NOTES: competition ELISA on TeNT, binder biotinylated; competitor mAb 11n185; further: test concentration or dose not given here
Give your result in % as a bare value.

# annotated cases, reported % inhibition of binding shown
{"columns": ["BINDER", "NUMBER"],
 "data": [
  ["SVT22L (VHH) VHH: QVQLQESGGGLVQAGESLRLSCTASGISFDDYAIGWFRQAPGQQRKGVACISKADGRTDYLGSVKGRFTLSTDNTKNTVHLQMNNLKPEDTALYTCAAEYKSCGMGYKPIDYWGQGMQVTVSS", 3],
  ["SVT16L (VHH) VHH: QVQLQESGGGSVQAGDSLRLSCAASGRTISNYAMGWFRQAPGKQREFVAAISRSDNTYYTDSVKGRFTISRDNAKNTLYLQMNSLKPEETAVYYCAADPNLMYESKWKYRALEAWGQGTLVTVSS", -2],
  ["SVT13L (VHH) VHH: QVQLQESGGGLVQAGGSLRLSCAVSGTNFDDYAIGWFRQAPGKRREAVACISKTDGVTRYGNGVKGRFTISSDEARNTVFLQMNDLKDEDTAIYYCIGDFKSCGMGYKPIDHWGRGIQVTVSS", 2]
]}

IN: Data request, read-out % inhibition of binding, for SVT06L (VHH) VHH: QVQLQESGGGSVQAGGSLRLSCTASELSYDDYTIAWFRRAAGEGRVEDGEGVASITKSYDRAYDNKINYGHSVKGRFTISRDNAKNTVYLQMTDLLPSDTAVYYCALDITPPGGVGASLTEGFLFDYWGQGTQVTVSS
OUT: 5
